Entries and their MIC
# Tested on: A. baumannii CDC-0036
# experiment summary: microbe, parasite or virus in culture
# Assay type: cell-based
# particulars: Acinetobacter baumannii, CDC0036, read-out: MIC, A. baumannii CDC-0036

compound	MIC
O=C(NCCCS(=O)(=O)N1CCN(C(=O)NC(C(=O)N[C@H]2Cc3ccc(F)c(C(=O)O)c3OB2O)c2cc(F)c(O)c(O)c2Cl)C1=O)Nc1ccc(O)cc1 (some centres unmarked)	2 to 4 µg/mL
O=C(NCCN1CCN(C(=O)NC(C(=O)N[C@H]2Cc3ccc(F)c(C(=O)O)c3OB2O)c2cc(F)c(O)c(O)c2Cl)C1=O)Nc1cccnc1 (some centres unmarked)	2 to 4 µg/mL
O=C(O)c1c(F)ccc2c1OB(O)[C@@H](NC(=O)[C@H](NC(=O)N1CCN(Cc3ccc(O)c(O)c3Cl)C(=O)C1=O)c1ccc(P(=O)(O)O)c(F)c1F)C2	< 1 µg/mL
O=C(NCCCS(=O)(=O)N1CCN(C(=O)N[C@H](C(=O)N[C@H]2Cc3ccc(F)c(C(=O)O)c3OB2O)c2ccc(P(=O)(O)O)cc2)C1=O)c1ccc(O)c(O)c1Cl (single isomer, unassigned)	> 128 µg/mL
O=C(O)c1c(F)ccc2c1OB(O)[C@@H](NC(=O)C(NC(=O)N1CCN(C3CCN(C(=O)c4ccc(O)cc4O)CC3)C(=O)C1=O)c1cc(F)c(O)c(O)c1Cl)C2 (some centres unmarked)	< 1 µg/mL

Ask: Name the recorded MIC of the compound listed here: `CN(CCN1CCN(C(=O)N[C@@H](C(=O)N[C@H]2Cc3ccc(F)c(C(=O)O)c3OB2O)c2cc(F)c(O)c(O)c2Cl)C(=O)C1=O)Cc1ccc(C(N)=O)cc1`
Reply: 2 to 4 µg/mL

Ask: Name the recorded MIC of the compound listed here: O=C(O)c1c(F)ccc2c1OB(O)[C@@H](NC(=O)C(NC(=O)N1CCN(C3CCN(C(=O)c4ccc(O)cc4)CC3)C(=O)C1=O)c1cc(F)c(O)c(O)c1Cl)C2 (some centres unmarked)
Reply: < 1 µg/mL

Ask: Name the recorded MIC of the compound listed here: O=C(NCCCN1CCN(C(=O)NC(C(=O)N[C@H]2Cc3ccc(F)c(C(=O)O)c3OB2O)c2cc(F)c(O)c(O)c2Cl)C(=O)C1=O)c1c(F)ccc(O)c1F (some centres unmarked)
Reply: 2 to 4 µg/mL

Ask: Name the recorded MIC of the compound listed here: O=C(O)c1c(F)ccc2c1OB(O)[C@@H](NC(=O)[C@H](NC(=O)N1CCN(C3CCN(C(=O)c4cc(O)ccc4Cl)CC3)C1=O)c1cc(F)c(O)c(O)c1Cl)C2 (single isomer, unassigned)
Reply: < 1 µg/mL

Ask: Name the recorded MIC of the compound listed here: O=C(CN1CCN(C(=O)NC(C(=O)N[C@H]2Cc3ccc(F)c(C(=O)O)c3OB2O)c2cc(F)c(O)c(O)c2Cl)C(=O)C1=O)NCc1cccnc1 (some centres unmarked)
Reply: 2 to 4 µg/mL

Ask: Name the recorded MIC of the compound listed here: O=C(NCCN1CCN(C(=O)NC(C(=O)N[C@H]2Cc3ccc(F)c(C(=O)O)c3OB2O)c2cc(F)c(O)c(O)c2Cl)C(=O)C1=O)c1ccc(O)cc1 (some centres unmarked)
Reply: 8 to 16 µg/mL

All figures here come from patent US20240270762A1.
